Reference for the values: patent US10138227B2

# target.or.test.system: CFTR ΔF508 mutant (Homo sapiens, UniProt P13569, DEL508-508)
# Sequence (P13569 with tags, fused parts or gaps DEL508-508): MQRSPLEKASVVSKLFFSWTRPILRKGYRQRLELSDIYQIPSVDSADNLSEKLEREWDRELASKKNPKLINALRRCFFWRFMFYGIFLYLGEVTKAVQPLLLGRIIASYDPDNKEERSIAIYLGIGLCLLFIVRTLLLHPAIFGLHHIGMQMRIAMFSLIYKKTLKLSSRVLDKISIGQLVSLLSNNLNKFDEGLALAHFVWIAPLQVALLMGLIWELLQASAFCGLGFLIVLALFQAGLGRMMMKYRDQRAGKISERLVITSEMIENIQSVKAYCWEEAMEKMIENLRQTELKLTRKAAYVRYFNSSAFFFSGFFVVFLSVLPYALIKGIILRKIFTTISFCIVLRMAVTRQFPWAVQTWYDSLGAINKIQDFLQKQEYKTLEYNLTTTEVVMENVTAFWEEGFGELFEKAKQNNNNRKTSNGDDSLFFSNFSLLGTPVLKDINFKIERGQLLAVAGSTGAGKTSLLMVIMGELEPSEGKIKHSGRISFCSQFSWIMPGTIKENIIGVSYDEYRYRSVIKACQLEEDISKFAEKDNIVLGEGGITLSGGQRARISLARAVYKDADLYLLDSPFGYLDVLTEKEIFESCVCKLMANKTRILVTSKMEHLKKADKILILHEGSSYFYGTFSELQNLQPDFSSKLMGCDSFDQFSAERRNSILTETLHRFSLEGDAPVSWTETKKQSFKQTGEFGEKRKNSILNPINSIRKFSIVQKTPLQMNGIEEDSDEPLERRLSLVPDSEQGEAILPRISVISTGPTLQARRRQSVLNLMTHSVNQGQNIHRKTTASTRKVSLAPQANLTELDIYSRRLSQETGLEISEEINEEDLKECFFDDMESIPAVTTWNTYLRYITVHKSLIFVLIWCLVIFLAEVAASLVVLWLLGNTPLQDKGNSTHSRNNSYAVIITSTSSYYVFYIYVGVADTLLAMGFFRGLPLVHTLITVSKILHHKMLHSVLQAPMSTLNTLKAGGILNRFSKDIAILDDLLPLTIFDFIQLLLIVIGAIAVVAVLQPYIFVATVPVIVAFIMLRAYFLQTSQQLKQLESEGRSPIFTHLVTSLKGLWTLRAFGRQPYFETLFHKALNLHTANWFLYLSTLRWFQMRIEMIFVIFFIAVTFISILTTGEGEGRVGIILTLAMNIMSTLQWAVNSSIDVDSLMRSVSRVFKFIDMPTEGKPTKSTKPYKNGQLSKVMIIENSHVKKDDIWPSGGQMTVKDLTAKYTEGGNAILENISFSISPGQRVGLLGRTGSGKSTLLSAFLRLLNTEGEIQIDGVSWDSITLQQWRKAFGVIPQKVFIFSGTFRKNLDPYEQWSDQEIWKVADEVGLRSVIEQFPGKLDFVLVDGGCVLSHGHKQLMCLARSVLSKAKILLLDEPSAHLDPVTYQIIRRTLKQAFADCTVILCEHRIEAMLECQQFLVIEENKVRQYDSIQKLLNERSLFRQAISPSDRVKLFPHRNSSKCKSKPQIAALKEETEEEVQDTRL
# assay.text: YFP-halide influx assay for the CFTR-ΔF508 mutation
# condition.details: CFBE41o- cells expressing CFTR ΔF508 and YFP reporter; forskolin 10.67 μM; (1-F/F0) vs concentration
Each item that follows carries a reported pEC50.
Formally, pEC50 is defined as -log10 of the concentration c, with c in mol/L.

Reference set (5 entries):
molecule="COCc1nnc(-c2ncc(S(=O)(=O)c3ccc(OC(F)(F)F)cc3)cc2N)s1 [Compound 26]" target_or_test_system="CFTR ΔF508 mutant (Homo sapiens, UniProt P13569, DEL508-508)" value=8.48
molecule="Nc1cc(S(=O)(=O)c2ccc(OC(F)(F)F)cc2)cnc1-c1nnc(COCC2CC2)o1 [Compound 12]" target_or_test_system="CFTR ΔF508 mutant (Homo sapiens, UniProt P13569, DEL508-508)" value=8.07
molecule="Nc1cc(S(=O)(=O)c2ccc(C(F)(F)F)cc2)cnc1-c1nnc(CO)o1 [Compound 7]" target_or_test_system="CFTR ΔF508 mutant (Homo sapiens, UniProt P13569, DEL508-508)" value=8.24
molecule="Nc1cc(S(=O)(=O)c2ccc(OC(F)(F)F)cc2)cnc1-c1nnc([C@@H](O)Cc2ccccc2)o1 [Compound 44]" target_or_test_system="CFTR ΔF508 mutant (Homo sapiens, UniProt P13569, DEL508-508)" value=8.79
molecule="Nc1cc(S(=O)(=O)c2ccccc2)cnc1-c1nnc(CO)o1 [Compound 61]" target_or_test_system="CFTR ΔF508 mutant (Homo sapiens, UniProt P13569, DEL508-508)" value=7.01

Q: Look at this molecule and give its reported pEC50. Nc1cc(S(=O)(=O)c2ccc(OC(F)(F)F)cc2)cnc1-c1nnc(CO)o1 [Compound 1]
A: 8.25

Q: Then Nc1cc(S(=O)(=O)c2ccc(OC(F)(F)F)cc2)cnc1-c1nnc(COC(F)F)o1 [Compound 39] ?
A: 8.01

Q: Check Nc1cc(S(=O)(=O)c2ccc(OC(F)(F)F)cc2)cnc1-c1nnc([C@@H](O)c2ccccc2)o1 [Compound 45] too.
A: 8.95

Q: Subsequent entry: Nc1cc(S(=O)(=O)c2ccc(F)cc2)cnc1-c1nnc(CO)o1 [Compound 9]
A: 7.01

Q: Similarly, CO[C@@H](c1ccccc1)c1nnc(-c2ncc(S(=O)(=O)c3ccc(OC(F)(F)F)cc3)cc2N)o1 [Compound 11] ?
A: 7.46

Q: Can you check Nc1cc(S(=O)(=O)c2ccc(OC(F)(F)F)cc2)cnc1-c1nnc(C[C@@H]2CCCO2)o1 [Compound 40] next?
A: 7.43

Q: Also, CCOCc1nnc(-c2ncc(S(=O)(=O)c3ccc(OC(F)(F)F)cc3)cc2N)o1 [Compound 36] please.
A: 7.91

* * *

# target.or.test.system: CFTR ΔF508 mutant (Homo sapiens, UniProt P13569, DEL508-508)
# Construct: expressed in transfected cells; host or cells: CFBE41o- cells transduced with adenoviral vectors
# assay.text: YFP-halide influx assay for the CFTR-ΔF508 mutation
# Assay type: cell-based
# condition.details: CFBE41o- cells expressing CFTR ΔF508 and YFP reporter; forskolin 10.67 μM
Parameter % Activation: see the listing below.

molecule="Nc1c(-c2nnc(CO)o2)ncc(S(=O)(=O)c2ccc(OC(F)(F)F)cc2)c1Br [Compound 66]" target_or_test_system="CFTR ΔF508 mutant (Homo sapiens, UniProt P13569, DEL508-508)" quantity="% Activation" value=<1.18%
molecule="Nc1cc(S(=O)(=O)c2ccc(OC(F)(F)F)cc2)cnc1-c1nnc([C@@H](O)Cc2ccccc2)o1 [Compound 44]" target_or_test_system="CFTR ΔF508 mutant (Homo sapiens, UniProt P13569, DEL508-508)" quantity="% Activation" value=105.25%

Q: # query: % Activation of entry CO[C@H](C)c1nnc(-c2ncc(S(=O)(=O)c3ccc(OC(F)(F)F)cc3)cc2N)s1 [Compound 21]
A: 109.42%

Q: Request: Nc1cc(S(=O)(=O)c2ccc(F)cc2)cnc1-c1nnc(CO)o1 [Compound 9]
A: 104.65%

Q: Then Nc1cc(S(=O)(=O)c2ccc(OC(F)(F)F)cc2)cnc1-c1nnc(CO)o1 [Compound 1] ?
A: 113.82%

Q: Entry Nc1cc(S(=O)(=O)c2ccc(OC(F)(F)F)cc2)cnc1-c1ncc(CO)s1 [Compound 5] please
A: 58.29%

Q: Now this one: Nc1cc(S(=O)(=O)c2ccc(OC(F)(F)F)cc2)cnc1-c1nnc([C@@H](O)c2ccccc2)o1 [Compound 45]
A: 109.25%

Q: Continue with CC(C)c1ccccc1S(=O)(=O)c1cnc(-c2nnc(CO)o2)c(N)c1 [Compound 65]
A: 106.55%

* * *

# target.or.test.system: CFTR ΔF508 mutant (Homo sapiens, UniProt P13569, DEL508-508)
# Construct: expressed in transfected cells; host or cells: CFBE41o- cells transduced with adenoviral vectors
# assay.text: YFP-halide influx assay for the CFTR-ΔF508 mutation
# Type: cell-based
# condition.details: CFBE41o- cells expressing CFTR ΔF508 and YFP reporter; forskolin 10.67 μM
quantity: % Activation (%)
Supply the numeric figure in %, leaving out any unit text.

Example entries begin here.
compound=Nc1cc(S(=O)(=O)c2ccc(OC(F)(F)F)cc2)cnc1-c1nc(COc2ccc(F)cc2)no1 quantity="% Activation" value=29.2
compound=NC(=O)c1nnc(-c2ncc(S(=O)(=O)c3ccc(OC(F)(F)F)cc3)cc2N)o1 quantity="% Activation" value=93.73
compound="Nc1cc(S(=O)(=O)c2ccc(OC(F)(F)F)cc2)cnc1-c1nnc(COC2CCOC2)o1 (stereo not shown)" quantity="% Activation" value=110.75

Now consider the entry below.
Q: Could you tell me which % Activation is on file for "Nc1cc(S(=O)(=O)c2ccc(OC(F)(F)F)cc2)cnc1-c1nnc(COC(F)F)o1" ?
A: 119.45

* * *

# target.or.test.system: CFTR ΔF508 mutant (Homo sapiens, UniProt P13569, DEL508-508)
# assay.text: YFP-halide influx assay for the CFTR-ΔF508 mutation
# condition.details: CFBE41o- cells expressing CFTR ΔF508 and YFP reporter; forskolin 10.67 μM; (1-F/F0) vs concentration
We begin with a simple list: items and their reported EC50.

test_smiles=CC(C)(O)c1nnc(-c2ncc(S(=O)(=O)c3ccc(OC(F)(F)F)cc3)cc2N)o1 value="< 0.77 nM"
test_smiles=Nc1cc(S(=O)(=O)c2ccc(OC(F)(F)F)cc2)cnc1-c1nc(C2CCOCC2)no1 value="> 4990 nM"
test_smiles=CC(C)c1ccccc1S(=O)(=O)c1cnc(-c2nnc(CO)o2)c(N)c1 value="< 1.05 nM"
test_smiles=Nc1cc(S(=O)(=O)c2ccc(OC(F)(F)F)cc2)cnc1-c1nc(C2CC2)no1 value="> 4990 nM"
test_smiles=Nc1cc(S(=O)(=O)c2ccc(OC(F)(F)F)cc2)c(Cl)nc1-c1nnc(CO)o1 value="< 0.46 nM"

As a next step, examine the compound that follows.
Q: Recorded EC50 of "COC(C)(C)c1noc(-c2ncc(S(=O)(=O)c3ccc(OC(F)(F)F)cc3)cc2N)n1" , please.
A: > 1660 nM

* * *

Listed here: items and their measured % Activation.
# target.or.test.system: CFTR ΔF508 mutant (Homo sapiens, UniProt P13569, DEL508-508)
# Construct: expressed in transfected cells; host or cells: CFBE41o- cells transduced with adenoviral vectors
# assay.text: YFP-halide influx assay for the CFTR-ΔF508 mutation
# Format: cell-based
# condition.details: CFBE41o- cells expressing CFTR ΔF508 and YFP reporter; forskolin 10.67 μM
# number then unit; no other words

compound="CC(O)c1nnc(-c2ncc(S(=O)(=O)c3ccc(OC(F)(F)F)cc3)cc2N)o1 (centres unmarked) [Compound 42]" target_or_test_system="CFTR ΔF508 mutant (Homo sapiens, UniProt P13569, DEL508-508)" value=109.65%
compound="Nc1cc(S(=O)(=O)c2ccc(OC(F)(F)F)cc2)cnc1-c1nnc(COc2ccccc2)o1 [Compound 13]" target_or_test_system="CFTR ΔF508 mutant (Homo sapiens, UniProt P13569, DEL508-508)" value=100.57%
compound="CO[C@@H](c1ccccc1)c1nnc(-c2ncc(S(=O)(=O)c3ccc(OC(F)(F)F)cc3)cc2N)s1 [Compound 19]" target_or_test_system="CFTR ΔF508 mutant (Homo sapiens, UniProt P13569, DEL508-508)" value=97.54%
compound="COCCOCc1nnc(-c2ncc(S(=O)(=O)c3ccc(OC(F)(F)F)cc3)cc2N)o1 [Compound 33]" target_or_test_system="CFTR ΔF508 mutant (Homo sapiens, UniProt P13569, DEL508-508)" value=103.5%

Q: Data request, read-out % Activation, for Nc1cc(S(=O)(=O)c2ccc(OC(F)(F)F)cc2)c(Cl)nc1-c1nnc(CO)o1 [Compound 64]
A: 122%

Q: And then CO[C@@H](C)c1nnc(-c2ncc(S(=O)(=O)c3ccc(OC(F)(F)F)cc3)cc2N)o1 [Compound 35] , what is it?
A: 98.52%

Q: And the next one, Nc1cc(S(=O)(=O)c2ccc(OC(F)(F)F)cc2)cnc1-c1nnc(COC(F)(F)F)s1 [Compound 28] ?
A: 50.3%

Q: Would you mind doing Nc1cc(S(=O)(=O)c2ccc(OC(F)(F)F)cc2)cnc1-c1nnc(COC(F)F)s1 [Compound 30] as well?
A: 94.98%
